experiment: Concentration of test compound in eye tissue and blood after continuous subcutaneous administration by implanted mini-pump (EIA); assay type: in vivo, JW (clean) strain female rabbits; details: sc, 2.5 mg/animal/day; Whole blood, Day 4 (n=3); continuous subcutaneous administration (2.5 mg/rabbit/day); read-out: Mean concentration in tissue ± S.E.
readoutType: concentration at 96 h (ng/g)

compound="CNC(=O)OC1CCC2(CO2)C(C2(C)OC2CC=C(C)C)C1OC (stereo not shown) [test compound]" quantitativeresult=13.7

###

Assay: Concentration of test compound in eye tissue and blood after transocular administration of ophthalmic solution (EIA)
Format: in vivo, JW (clean) strain female rabbits
Settings: topical or ocular; Vitreum; 30 min. after transocular administration of ophthalmic solution (total 1 mg/rabbit); n = 6; read-out: Mean concentration in tissue ± S.E.
Protocol: The resultant preparation was filled in an instillator. c The experiment was carried out using JW (clean) strain female rabbits (body weight: 2.3 to 2.6 kg), each test group containing three rabbits. In this experiment, the rabbits were allowed to feed themselves and drink water freely both before and after each administration. […]
readoutType: concentration at 0.5 h (ng/g)

compound="CNC(=O)OC1CCC2(CO2)C(C2(C)OC2CC=C(C)C)C1OC (stereo not shown)" units=ng/g quantitativeresult=9.99

###

experiment: Concentration of test compound in eye tissue and blood after continuous subcutaneous administration by implanted mini-pump (EIA); assay type: in vivo, JW (clean) strain female rabbits; details: sc, 2.5 mg/animal/day; Aqueous humor in anterior chamber of eye; Day 5 of continuous subcutaneous administration (2.5 mg/rabbit/day); n = 6; read-out: Mean concentration in tissue ± S.E.
readoutType: concentration at 120 h (ng/g)

compound="CNC(=O)OC1CCC2(CO2)C(C2(C)OC2CC=C(C)C)C1OC (stereo not shown)" readouttype="concentration at 120 h" units=ng/g quantitativeresult=0.79

###

Assay: Concentration of test compound in eye tissue and blood after transocular administration of ophthalmic solution (EIA)
Format: in vivo, JW (clean) strain female rabbits
Conditions: topical or ocular; Whole blood (n = 3); 30 min. after transocular administration of ophthalmic solution (total 1 mg/rabbit); read-out: Mean concentration in tissue ± S.E.
Procedure: The resultant preparation was filled in an instillator. c The experiment was carried out using JW (clean) strain female rabbits (body weight: 2.3 to 2.6 kg), each test group containing three rabbits. In this experiment, the rabbits were allowed to feed themselves and drink water freely both before and after each administration. […]
readoutType: concentration at 0.5 h

molecule="CNC(=O)OC1CCC2(CO2)C(C2(C)OC2CC=C(C)C)C1OC (stereo not shown) [test compound]" result="19.6 ng/g"

###

test: Concentration of test compound in eye tissue and blood after continuous subcutaneous administration by implanted mini-pump (EIA); type: in vivo, JW (clean) strain female rabbits; details: sc, 2.5 mg/animal/day; Whole blood, Day 5 (n=3); continuous subcutaneous administration (2.5 mg/rabbit/day); read-out: Mean concentration in tissue ± S.E.
readoutType: concentration at 120 h (ng/g)

compound="CNC(=O)OC1CCC2(CO2)C(C2(C)OC2CC=C(C)C)C1OC (stereo not shown)" readouttype="concentration at 120 h" quantitativeresult=22.5
